Below is a list of entries, each paired with its recorded phosphorylation enrichment value.
assayed.target: Jak2 (UniProt O60674)
Sequence (O60674 whole entry, looked up): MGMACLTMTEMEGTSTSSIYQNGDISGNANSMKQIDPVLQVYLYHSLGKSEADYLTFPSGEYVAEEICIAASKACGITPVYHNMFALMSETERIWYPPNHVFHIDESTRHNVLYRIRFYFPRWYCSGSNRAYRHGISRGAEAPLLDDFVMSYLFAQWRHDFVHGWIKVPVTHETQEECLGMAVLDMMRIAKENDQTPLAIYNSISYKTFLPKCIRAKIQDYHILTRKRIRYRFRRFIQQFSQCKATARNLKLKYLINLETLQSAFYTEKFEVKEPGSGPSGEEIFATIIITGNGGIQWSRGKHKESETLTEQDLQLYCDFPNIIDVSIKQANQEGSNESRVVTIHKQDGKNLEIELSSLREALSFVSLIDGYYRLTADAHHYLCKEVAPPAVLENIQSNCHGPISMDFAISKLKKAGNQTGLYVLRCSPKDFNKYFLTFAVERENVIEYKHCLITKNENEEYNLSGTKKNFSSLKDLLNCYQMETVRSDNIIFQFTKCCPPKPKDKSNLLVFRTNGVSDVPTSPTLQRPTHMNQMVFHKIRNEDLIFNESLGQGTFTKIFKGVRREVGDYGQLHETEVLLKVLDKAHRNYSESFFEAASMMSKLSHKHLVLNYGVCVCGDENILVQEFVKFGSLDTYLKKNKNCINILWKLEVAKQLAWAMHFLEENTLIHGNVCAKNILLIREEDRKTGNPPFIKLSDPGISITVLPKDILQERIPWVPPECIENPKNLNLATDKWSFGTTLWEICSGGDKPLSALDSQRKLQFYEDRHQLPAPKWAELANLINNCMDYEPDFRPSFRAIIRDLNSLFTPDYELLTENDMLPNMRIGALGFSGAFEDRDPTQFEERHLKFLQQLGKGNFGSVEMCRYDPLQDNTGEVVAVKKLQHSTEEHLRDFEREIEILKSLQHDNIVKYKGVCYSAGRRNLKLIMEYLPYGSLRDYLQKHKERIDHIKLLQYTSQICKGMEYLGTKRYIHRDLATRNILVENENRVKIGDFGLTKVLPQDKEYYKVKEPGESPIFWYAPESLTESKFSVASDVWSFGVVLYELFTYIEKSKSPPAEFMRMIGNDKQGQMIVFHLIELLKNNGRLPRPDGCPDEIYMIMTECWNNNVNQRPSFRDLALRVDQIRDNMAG
assay: phosphorylation enrichment, bacterial display (enrichment ratio); higher = better substrate or ligand; peptides without Tyr show the background;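 also: 11-residue human phosphosite peptides and single-mutation variants displayed on the E. coli surface, counted by deep sequencing, each peptide's frequency after selection divided by its frequency in the unselected input library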;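 also: frequency after pTyr selection over input frequency; kinase dosed for 20-30% of maximal phosphorylation in three min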

query.sequence: SGIYQYSIAKF [FOXL2_Y83_I84S]
phosphorylation enrichment: 1.04

query.sequence: TTKAKYKTPIY [PLD2_Y573_T577I]
phosphorylation enrichment: 0.587

query.sequence: VSNFNYFFHRE [KCNA1_Y413_YF]
phosphorylation enrichment: 0.969

query.sequence: RRSQSYIPTSG [PLEKHA2_Y185]
phosphorylation enrichment: 0.649

query.sequence: LEDDVYRKTCT [XPA_Y257_M256V]
phosphorylation enrichment: 2.14

query.sequence: KWHREYNFKYV [RICTOR_Y835_S837F]
phosphorylation enrichment: 0.693

query.sequence: SGVNKYSTAFG [GJB3_Y16]
phosphorylation enrichment: 0.604

query.sequence: KKMKRYHVGKV [HARS2_Y151]
phosphorylation enrichment: 0.554

query.sequence: KASIMYPSNNC [CXCL11_Y52]
phosphorylation enrichment: 0.604

query.sequence: RTVPLYESPRK [DDB1_Y718]
phosphorylation enrichment: 0.833

query.sequence: DVAKEYGHLLP [HRC_Y99_S96A]
phosphorylation enrichment: 0.781

query.sequence: IRQDHYESLKE [MTR_Y921]
phosphorylation enrichment: 0.733

query.sequence: AGAKTYKMSMA [CPS1_Y309]
phosphorylation enrichment: 0.527

query.sequence: LLLLFCVVRYC [MPZ_Y177_Y177C]
phosphorylation enrichment: 3.14

query.sequence: SSREEYFIGGG [GYPC_Y126_K124E]
phosphorylation enrichment: 0.894

query.sequence: QDDFSYPSRQM [LDLR_Y847_G844D_YF]
phosphorylation enrichment: 0.674

query.sequence: FRDMDYRSFPR [RBM10_Y41_YF]
phosphorylation enrichment: 0.58

query.sequence: SHLEDYPFDAE [AKR1B10_Y310_N313D]
phosphorylation enrichment: 1.3

query.sequence: VKFLGYPPPEI [KDR_Y357_A352V_YF]
phosphorylation enrichment: 0.744

query.sequence: PEAALYGRFTI [FYN_Y440]
phosphorylation enrichment: 1.38

query.sequence: VFAADYFKLLG [ROR2_Y645_YF]
phosphorylation enrichment: 7.31

query.sequence: FAFQLYDLDPD [CHP2_Y123_R127P_YF]
phosphorylation enrichment: 1.25

query.sequence: GIMEEYQLPFF [BMPR1A_Y453_V450M_YF]
phosphorylation enrichment: 1.09

query.sequence: LAEMNYVHQDL [EPHB1_Y740_R743Q]
phosphorylation enrichment: 0.744

query.sequence: ADARMYGDLPW [PLP1_Y207_V209D]
phosphorylation enrichment: 0.71

query.sequence: KVGNEYITKGQ [MYH7_Y410_V411I]
phosphorylation enrichment: 0.561

query.sequence: MSSHHYDFKKF [ZNF445_Y428_YF]
phosphorylation enrichment: 0.382

query.sequence: ILTLKYPIEHG [ACTA1_Y71]
phosphorylation enrichment: 0.584

query.sequence: LDFNEYFRDLN [HPRT1_Y198_YF]
phosphorylation enrichment: 0.998

query.sequence: KPNMNYDKLSW [FLI1_Y332_R337W]
phosphorylation enrichment: 0.746

---

Test system: AncSZ
assay: phosphorylation enrichment, bacterial display (enrichment ratio); higher = better substrate or ligand; peptides without Tyr show the background
Decision: phosphorylation enrichment compared against 1; not below it gives yes (1), below it gives no (0).

query.sequence: GPGGDYAAMGA [ERBB3_Y1276]
assayed.target: AncSZ
classification: no (0)

query.sequence: FIPSNYVAEDR [FRK_Y104_YF]
assayed.target: AncSZ
classification: no (0)

query.sequence: ETKEDYEKILV [ANXA1_Y335_G333E]
assayed.target: AncSZ
classification: yes (1)

query.sequence: YDEYRYRSFIK [CFTR_Y517_V520F]
assayed.target: AncSZ
classification: yes (1)

query.sequence: SLYPGYNFRYA [P2RX7_Y291]
assayed.target: AncSZ
classification: no (0)

query.sequence: KDQGTYEDFVE [MYL6_Y86_YF]
assayed.target: AncSZ
classification: yes (1)

query.sequence: NFFEFYVDDPP [GCHFR_Y48_YF]
assayed.target: AncSZ
classification: yes (1)

query.sequence: ANNEYYFQVCA
assayed.target: AncSZ
classification: yes (1)

query.sequence: SQQTYYRVSNM [ABCD1_Y181]
assayed.target: AncSZ
classification: no (0)

query.sequence: KIEGVYARDET [RPL35A_Y34]
assayed.target: AncSZ
classification: no (0)

query.sequence: PGVNYYFQVSA
assayed.target: AncSZ
classification: yes (1)

query.sequence: WVYNHYRCIIW [BRCA2_Y2624_W2626C]
assayed.target: AncSZ
classification: yes (1)

query.sequence: GMTLSYLFREP [NDUFS8_Y74]
assayed.target: AncSZ
classification: no (0)

query.sequence: SHTPSYCDESL [RITA1_Y109]
assayed.target: AncSZ
classification: no (0)

query.sequence: TLSGIYQFIIA [FOXL2_Y81_YF]
assayed.target: AncSZ
classification: yes (1)

query.sequence: IVRSRYEDLED [VHL_Y185_L184R]
assayed.target: AncSZ
classification: yes (1)

query.sequence: GLAKEYTDPET [CSNK1G2_Y195_I196T]
assayed.target: AncSZ
classification: yes (1)

query.sequence: DGTIVCTGLET [USH2A_Y4487_Y4487C]
assayed.target: AncSZ
classification: no (0)

query.sequence: QFLMKYVWSAS [ABCD1_Y337]
assayed.target: AncSZ
classification: yes (1)

query.sequence: GKSDPYHATSG [GJA1_Y247]
assayed.target: AncSZ
classification: no (0)

query.sequence: DLFRLYICVKE [ARID1B_Y1091_V1092I]
assayed.target: AncSZ
classification: yes (1)

query.sequence: MRALIYNSSTA [PLEKHA7_Y243]
assayed.target: AncSZ
classification: no (0)

query.sequence: KYVKMYDNHQL [MYO9A_Y203]
assayed.target: AncSZ
classification: no (0)

query.sequence: PVGDAYKKKGL [NMNAT1_Y55]
assayed.target: AncSZ
classification: no (0)

query.sequence: DVAKEYGHLLP [HRC_Y99_S96A]
assayed.target: AncSZ
classification: no (0)

query.sequence: WPQKLYNNFVN [MYO5C_Y526_L522P]
assayed.target: AncSZ
classification: no (0)

query.sequence: TNYSLYLRSLE [MTM1_Y71_R69S]
assayed.target: AncSZ
classification: no (0)

query.sequence: EICTQYEAMAS [GFAP_Y242_R239C]
assayed.target: AncSZ
classification: yes (1)

query.sequence: RLVTRYIYNRE [HLA-DQB1_Y62_Y58L]
assayed.target: AncSZ
classification: no (0)

query.sequence: LERFIYNREEF [HLA-DPB1_Y59_F64Y_YF]
assayed.target: AncSZ
classification: yes (1)

query.sequence: GGSTFYIDTNA [ACTL6A_Y69_P66S_YF]
assayed.target: AncSZ
classification: no (0)

query.sequence: RLQEDYDHSYY [ESD_Y258_G257D]
assayed.target: AncSZ
classification: yes (1)

query.sequence: DLFRLYVCVKE [ARID1B_Y1091]
assayed.target: AncSZ
classification: yes (1)

query.sequence: QKKPRYEIRWK [PDGFRB_Y562]
assayed.target: AncSZ
classification: yes (1)

query.sequence: SQETYYRVSNM [ABCD1_Y181_Q178E]
assayed.target: AncSZ
classification: yes (1)

query.sequence: SSFDIYHLSRE [KIR3DL2_Y253_YF]
assayed.target: AncSZ
classification: yes (1)

query.sequence: NVADHYGVYKP [ATP6V0D2_Y271]
assayed.target: AncSZ
classification: no (0)

query.sequence: IGCHAYGDQFR [IDH1_Y135_R132C_YF]
assayed.target: AncSZ
classification: no (0)

query.sequence: SERNNYSRVAN [CWC22_Y797]
assayed.target: AncSZ
classification: no (0)

query.sequence: LNWIYYKDQTG [RS1_Y166]
assayed.target: AncSZ
classification: yes (1)

query.sequence: SADIAYNYRHG [PAH_Y166_F161S]
assayed.target: AncSZ
classification: no (0)

query.sequence: FTFDPYSEEEP [IL2RB_Y387_D391E_YF]
assayed.target: AncSZ
classification: yes (1)

query.sequence: EVASVYESYQP [MAVS_Y92_Q93E]
assayed.target: AncSZ
classification: yes (1)

query.sequence: TQPSPYAVFRF [RPGRIP1_Y823_YF]
assayed.target: AncSZ
classification: no (0)

query.sequence: RTEAQYRFIYM [PTPN11_Y511_Q506R]
assayed.target: AncSZ
classification: yes (1)

query.sequence: VFFGSYSRPFG [NKAP_Y104_YF]
assayed.target: AncSZ
classification: yes (1)

query.sequence: ISKKHYAGLLF [POLD1_Y809_R808H]
assayed.target: AncSZ
classification: no (0)

query.sequence: RKEAQYMLENE [SLC16A6_Y224]
assayed.target: AncSZ
classification: yes (1)

query.sequence: LLILEYAKFGS [RET_Y806_V804L_YF]
assayed.target: AncSZ
classification: yes (1)

query.sequence: FKELVYETVRV [FSHB_Y76]
assayed.target: AncSZ
classification: yes (1)
